- Test system: SK-MEL-2
- PROCEDURE DETAILS: NCI tumour cell line growth inhibition, 48 h
Activity calls are given as the source filed them. No stated cut-off is given here; in the data, active = GI50 up to about 1.1 µM and inactive = higher.
Please reply with one of these outcomes: 1 (active), 0 (inactive)

C#CC(O)/C=C/C(O)CCCC(O)CC#CC(O)C#CCCCCC(O)/C=C/CCCCCC(=O)CCCCCCCCCCCCCC(O)C(O)C#CC(=O)O (stereo unspecified) : 0
Cc1cc(O)nc(/N=C(\N)Nc2ccc(Cl)cc2)n1 : 0
N#C/C(=C\c1ccc(O)c(O)c1)c1c(C#N)c(N)nn1-c1ccccc1 : 0
CCOC(=O)[C@@H]1ON2OC(OC3CCCC3(c3ccccc3)c3ccccc3)C(OC(C)=O)[C@H]3OC(=O)[C@@H]1C32 (stereo partly specified) : 0

What did this assay record as the result for `Cc1ccc(NC(=O)CCc2nc(N)nc(N)c2-c2ccccc2)cc1C` ? 0

What did this assay record as the result for CC(C)(C)OC(=O)NC(Cc1ccc(OCc2ccccc2)cn1)C(=O)N1CCCC1 (stereo unspecified) ? 0

What did this assay record as the result for O=C1OC(c2ccccc2)N(C(=O)c2ccccc2)C1Cc1ccc(OCc2ccccc2)cc1 (stereo unspecified) ? 0

What did this assay record as the result for `Nc1nc(-c2ccco2)cc(-c2ccco2)n1` ? 0

What did this assay record as the result for `O=C1c2c(c3c4ccccc4[nH]c3c3[nH]c4ccccc4c23)C(=O)N1Cc1ccccc1` ? 0

What did this assay record as the result for `CCn1c(-c2cc3ccccc3cc2OC(C)=O)n[nH]c1=S` ? 0

What did this assay record as the result for OC1(c2ccc(Cl)cc2)c2ccccc2C2=NCc3ccccc3CN21 (stereo unspecified) ? 0

What did this assay record as the result for `CC1=NN(c2nc(N)nc(/C(C#N)=C\c3ccc([N+](=O)[O-])s3)n2)C(C)(C)C1` ? 1

What did this assay record as the result for `NC(=O)NC(=O)c1cccc(NC(=O)CBr)c1` ? 1

----------
- Tested on: TK-10
- PROCEDURE DETAILS: NCI tumour cell line growth inhibition, 48 h
Calls of active or inactive are those of the source. Rule as the data show it: active = GI50 up to about 1.1 µM and inactive = higher.
Please reply with one of these outcomes: active, inactive

The following compounds have reported results that may help.
c1ccc2c(c1)SCCCS2 : inactive
OCC(Cn1cncn1)(c1ccc(F)cc1F)n1cncn1 (centres undefined) : inactive
Cc1cc(O)cc2oc(=O)c3c(O)cc(O)cc3c12 : inactive
COC(=O)[C@]12CCC(C)(C)C[C@H]1[C@H]1C(=O)C=C3[C@@]4(C)C=C(C#N)C(=O)C(C)(C)[C@@H]4CC[C@@]3(C)[C@]1(C)CC2 : active
CC(C)[C@H](C)/C=C/[C@@H](C)C1CC[C@H]2[C@@]34C=C[C@]5(C[C@@H](O)CC[C@]5(C)[C@H]3CC[C@]12C)OO4 (some centres undefined) : inactive

What did this assay record as the result for `COc1cc2c(c(OC)c1)C(=O)O[C@H](C)CCCC/C=C/C2` ? inactive

What did this assay record as the result for OC(c1cccnc1Cl)c1nc2ccccc2c2ccnc(Cl)c12 (centres undefined) ? inactive

What did this assay record as the result for `COC(=O)c1c2c(cc3c1CC1(C3)Cc3cc4c(c(C(=O)OC)c3C1)CCCC4)CCCC2` ? inactive

What did this assay record as the result for COC(=O)c1ccccc1CC1Cc2c(C)ccc(C)c2C1=O (centres undefined) ? inactive

What did this assay record as the result for Cc1cccc(NC(=O)CC2C(=O)Nc3ccccc3S2(=O)=O)c1C (centres undefined) ? inactive

What did this assay record as the result for CCCCCC[C@H]1CC(=O)C2CCCC[C@@]23CC[C@H](CCl)N13.CCCCCC[C@H]1CC(=O)C2CCCC[C@@]23C[C@H](Cl)CN13 (some centres undefined) ? inactive

What did this assay record as the result for `O=C1OC(=O)C(=C\c2ccc3c(c2)OCO3)/C1=C/c1ccc2c(c1)OCO2` ? inactive

What did this assay record as the result for `O/N=C\c1c2c(cc3c1CCC3)CCC2` ? inactive

What did this assay record as the result for `Cc1c(C#N)c2nnn(-c3cccc(Cl)c3)c(=O)n2c1-c1ccccc1` ? inactive

What did this assay record as the result for `O=C(Nc1c(O)[nH]c(=S)[nH]c1=O)c1ccco1` ? inactive

What did this assay record as the result for O=C(NC1=NC2C=CC([N+](=O)[O-])=CC2S1)C(=O)Nn1c(S)nc2ccccc2c1=O (centres undefined) ? inactive

What did this assay record as the result for `CCOC(=O)c1ccc(Nc2nc3cc(C(F)(F)F)ccc3nc2C(=O)OCC)cc1` ? inactive

What did this assay record as the result for `Cc1cc(O)nc(/N=C(\N)Nc2ccc(Cl)cc2)n1` ? inactive

What did this assay record as the result for `OCCSCc1cc2c(O)c(c1)Cc1cc(CSCCO)cc(c1O)Cc1cc(CSCCO)cc(c1O)Cc1cc(CSCCO)cc(c1O)C2` ? inactive

FYI, the data here is from ChEMBL document CHEMBL1201862.
